Target: HLA-A*68:01
Assay: IEDB peptide-MHC binding, purified MHC/competitive/radioactivity; filed as Kd, often an IC50 or EC50 that approximates it; bounds were set here for any values at or beyond the usual limits of such assays
Details: source organism: Mammarenavirus brazilense
measure_name: pKd
Here pKd is given on a logarithmic scale as minus log10 of the concentration in mol/L.

// map `FKVAFSKHYK` to recorded pKd (system: HLA-A*68:01) 6.24

====

Biological target: HLA-B*46:01
Assay: IEDB peptide-MHC binding, purified MHC/competitive/fluorescence; filed as Kd, often an IC50 or EC50 that approximates it; bounds were set here for any values at or beyond the usual limits of such assays
Settings: source organism: Xanthobacter autotrophicus Py2
measure_name: Kd

Quick check: Kd of `GQMYNMNTL` ? ≥ 20 µM
